Readings of MIC for the listed compounds
test system: Rhizopus arrhizus; experiment: Antifungal activity against Rhizopus oryzae IFO 4766; type: functional

Reference set, count: 2
C/N=C(/N)NCCCCCCCCCCCCO; > 400 µM
CNC(=N)NCCCCCCCCCCCC(=O)OC; > 400 µM

// query Can you share its MIC? I mean this compound: C/N=C(/N)NCCCCCCCCCCCC(=O)O
// result > 400 µM

// query Any idea what its MIC is? The compound is C/N=C(/N)NCCC/C=C/CCC[C@H](C)C[C@H](C)[C@H]1OC(=O)C(C)C(O)/C=C/C(C)C(O)CC(O)C(C)C(O)CCC(C)C(O)CC2(O)OC(CC(OC(=O)CC(=O)O)CC(O)CC(O)C(C)C(O)/C=C/C=C/C1C)CC(O)C2O (stereo not given in full)
// result 1 µM

// query I'd like to know its MIC. The compound in question is CCCC/N=C(\N)NC
// result > 400 µM
